Reference source for all entries: PubChem BioAssay (NCI)

Test system: CCRF-CEM leukemia
Assay: NCI tumour cell line growth inhibition, 48 h; in the data active = GI50 below about 0.43 µM; inactive = the rest
Would you mind answering with one of these outcomes? 1.0 for active, 0.0 for inactive

Below, 5 compounds whose answers are already recorded.
| compound | label |
| --- | --- |
| O=C1CC[C@H](c2ccc(O)c3c2C(=O)[C@@H]2O[C@@H]2C3=O)c2cccc(O)c21 | 0.0 |
| O=C(O)c1cccc2cccc(C(=O)O)c12.[Hg] | 0.0 |
| COc1ccc(OC)c(/C=C2\COc3ccc(O)c(O)c3C2=O)c1 | 0.0 |
| O=C(NCCNc1nccc(-c2c(-c3ccc(F)cc3)nc3sccn23)n1)c1ccccc1 | 0.0 |
| Cn1ccnc1C(=O)/C=C/c1ccc(CC(=O)Nc2ccc(F)cc2)cc1 | 0.0 |

Tell me the recorded outcome of this test for `COC1=CC(c2ccc[nH]2)=N/C1=C\c1[nH]c(C)c(C(C)=O)c1C` .
1.0

Tell me the recorded outcome of this test for CCCC1=C(C(=O)OCC)C(c2ccccc2OC)C(C#N)=C(N)O1 (stereo unspecified) .
0.0

Tell me the recorded outcome of this test for COc1cc(C2CC(c3ccccc3)=NN2C(C)=O)cc(OC)c1OC (stereo unspecified) .
0.0

* * *

Tested on: UACC-257 melanoma
Assay: NCI tumour cell line growth inhibition, 48 h
attribute.measured: GI50

| cpd.smiles | system.name | GI50 |
| --- | --- | --- |
| O=C1CC[C@H](c2ccc(O)c3c2C(=O)[C@@H]2O[C@@H]2C3=O)c2cccc(O)c21 | UACC-257 melanoma | 2.98 µM |
| Cc1sc(NC2=NC(=O)/C(=C\c3ccccc3)S2)nc1-c1nc(NC2=NC(=O)/C(=C\c3ccccc3)S2)sc1C | UACC-257 melanoma | 13.7 µM |
| Cc1c(-c2nnc(-c3ccc(F)cc3)o2)nnn1-c1ccnc2c(C(F)(F)F)cccc12 | UACC-257 melanoma | > 100 µM |

Now for a further compound.
Give its GI50 value. Item: `O=C(CN1C(=O)S/C(=C\C(Cl)=C\c2ccccc2)C1=O)NCCc1ccc(O)cc1`
2.58 µM

* * *

Tested on: SF-295 CNS
Test: NCI tumour cell line growth inhibition, 48 h
attribute.measured: GI50

| compound | GI50 |
| --- | --- |
| CC(C)n1c(=O)n(C)c2cnc3cc(F)c(-c4ccc(OCCCN5CCCCC5)nc4)cc3c21 | 3.99 µM |
| CCN(CC)CCCCNc1ncc2cc(-c3cc(OC)cc(OC)c3)c(NC(=O)NC(C)(C)C)nc2n1 | 3.59 µM |

Give its GI50 value. Item: `COc1ccc(-c2nn(-c3cccc(NC(=O)c4cccc(C(F)(F)F)c4)c3)cc2-c2ccncc2)cc1Cl`
2.37 µM

Give its GI50 value. Item: CCCC1=C(C(=O)OCC)C(c2ccccc2OC)C(C#N)=C(N)O1 (configuration not stated)
84 µM

Give its GI50 value. Item: `Oc1ccc(-c2cn3cc(Cl)sc3n2)cc1`
47.3 µM

Give its GI50 value. Item: `CCOC(=O)c1c(Cl)c2c(n1Cc1cccc(OC)c1)-c1oncc1CC2`
0.658 µM

Give its GI50 value. Item: `COc1ccc(-c2nc(N3CCOCC3)c3sc(CN(C)c4ncc(C(=O)NO)cn4)cc3n2)cn1`
< 0.01 µM

Give its GI50 value. Item: `COc1ccc(CCN2CCC(Nc3nc4ccccc4n3Cc3ccc(F)cc3)CC2)cc1`
1.65 µM

Give its GI50 value. Item: `O=C(O)c1c[nH]c2c(OCc3ccccc3)c3ccccc3c(O)c2c1=O`
13 µM

Give its GI50 value. Item: `O=C1/C(=C/c2ccccc2F)CN(C(=O)C(Cl)Cl)C/C1=C\c1ccccc1F`
0.391 µM

Give its GI50 value. Item: `O=C(NCCNc1nccc(-c2c(-c3ccc(F)cc3)nc3sccn23)n1)c1ccccc1`
6.97 µM

Give its GI50 value. Item: `Cn1ccnc1C(=O)/C=C/c1ccc(CC(=O)Nc2ccc(F)cc2)cc1`
4.55 µM
